Target: Rev-Erb alpha (Homo sapiens)
Sequence (P20393 284-614 limits assumed): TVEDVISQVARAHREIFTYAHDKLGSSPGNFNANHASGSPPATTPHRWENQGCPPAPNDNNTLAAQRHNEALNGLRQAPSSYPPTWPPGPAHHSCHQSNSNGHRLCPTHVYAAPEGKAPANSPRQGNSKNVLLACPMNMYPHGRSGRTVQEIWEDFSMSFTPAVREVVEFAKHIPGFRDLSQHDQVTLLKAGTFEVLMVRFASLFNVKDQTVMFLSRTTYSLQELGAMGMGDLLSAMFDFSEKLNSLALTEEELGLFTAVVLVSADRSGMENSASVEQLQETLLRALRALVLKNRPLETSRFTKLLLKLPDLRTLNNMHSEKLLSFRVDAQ
Experiment: M2H (mammalian two-hybrid) cellular activation assay of Rev-Erb alpha
Assay type: cell-based
Settings: M2H assay, HEK293 cells, Gal4-Rev-Erb alpha / VP16-NCoR, luciferase reporter
Counter-ions that a name gives are not always drawn.
property-label: EC50

{"molecule": "FC(F)(F)c1ccc(-c2ccncc2)c(Oc2ccc3nnc(Cl)n3n2)c1 [Cpd.4-79, hydrochloride]", "EC50": "1000 to 6000 nM"}
{"molecule": "FC(F)(F)c1nnc2ccc(Cc3ccccc3-c3ccccc3)nn12 [Cpd.4-12]", "EC50": "1000 to 6000 nM"}

Q) So what's the measured EC50 for this one? O=C(c1ccccc1)c1ccccc1Oc1ccc2nnc(C(F)(F)F)n2n1 [Cpd.4-8]
A) 1000 to 6000 nM

Q) # query: EC50 of entry COc1cccc(-c2ccc(C(F)(F)F)cc2Oc2ccc3nnc(C(F)(F)F)n3n2)c1 [Cpd.4-137]
A) 100 to 1000 nM

Q) Which EC50 value is on record for O=C(c1ccccc1)c1cc(Cl)ccc1Oc1ccc2nnc(Cl)n2n1 [Cpd.4-42] ?
A) 1000 to 6000 nM

Q) Entry under review: Cc1cc(Oc2ccc(Cl)cc2-c2cncnc2)nn2c(Cl)nnc12 [Cpd.5-58] . Reported EC50?
A) 1000 to 6000 nM

Q) Any idea what EC50 was measured for Clc1nnc2ccc(Oc3ccc(CNCC4CCCO4)cc3-c3ccccc3)nn12 (stereo not drawn) [Cpd.4-163] ?
A) > 6000 nM

Q) Dear colleague, I am looking for the recorded EC50 of the following molecule: Cc1cc2nncn2nc1Oc1cc(C(F)(F)F)ccc1-c1cncnc1 [Cpd.5-44]
A) > 6000 nM

Q) Please look up its EC50: CS(=O)(=O)N1CCN(Cc2ccc(Oc3ccc4nnc(Cl)n4n3)c(-c3ccccc3)c2)CC1 [Cpd.4-164]
A) 1000 to 6000 nM

Q) Please give the measured EC50 for this molecule: Oc1ccc(Oc2ccc3nnc(Cl)n3n2)c(-c2ccccc2)c1 [Cpd.4-32]
A) 1000 to 6000 nM

Q) Form field: reported EC50 of Cc1cc(Oc2cc(C(F)(F)F)ccc2-c2cncnc2C(C)C)nn2c(Cl)nnc12 [Cpd.5-38]
A) 1000 to 6000 nM

Q) Report EC50 for NC(=O)c1cccc(-c2ccc(C(F)(F)F)cc2Oc2ccc3nnc(Cl)n3n2)c1 [Cpd.4-72] please.
A) 1000 to 6000 nM

Q) Which measured EC50 value corresponds to Clc1nnc2ccc(Oc3ccccc3Cc3ccccc3)nn12 [Cpd.4-4] ?
A) 100 to 1000 nM

Q) Query: EC50; subject: Fc1cccc(-c2cccc(Oc3ccc4nnc(Cl)n4n3)c2)c1 [Cpd.3-6]
A) 100 to 1000 nM

Q) Which EC50 value belongs to Fc1ccc2c(c1)c(Oc1cc(C(F)(F)F)ccc1-c1ccccc1)nn1c(Cl)nnc21 [Cpd.5-3] ?
A) 100 to 1000 nM

Q) Look up EC50 for this molecule: Fc1ccc(-c2ccc(F)cc2Oc2ccc3nnc(Cl)n3n2)cc1 [Cpd.4-31]
A) 100 to 1000 nM

Q) Please give the measured EC50 for this molecule: COc1nccc(C)c1-c1ccc(C(F)(F)F)cc1Oc1ccc2nnc(Cl)n2n1 [Cpd.4-130]
A) 1000 to 6000 nM

Q) Give its EC50 value. Item: COc1cncc(-c2ccc(C(F)(F)F)cc2Oc2ccc3nnc(Cl)n3n2)c1 [Cpd.4-82]
A) 1000 to 6000 nM
